- Test system: CFTR (F508del/MF-HBE cells) (Homo sapiens, UniProt P13569, DEL508-508)
- Construct: human bronchial epithelial (HBE) cells derived from CF subjects heterozygous for F508del and a minimal function CFTR mutation (F508del/MF-HBE); endogenous in cells; host or cells: Primary human bronchial epithelial cells from CF subjects (F508del/MF genotype), differentiated at an air-liquid interface
- Sequence (P13569 with tags, fused parts or gaps DEL508-508): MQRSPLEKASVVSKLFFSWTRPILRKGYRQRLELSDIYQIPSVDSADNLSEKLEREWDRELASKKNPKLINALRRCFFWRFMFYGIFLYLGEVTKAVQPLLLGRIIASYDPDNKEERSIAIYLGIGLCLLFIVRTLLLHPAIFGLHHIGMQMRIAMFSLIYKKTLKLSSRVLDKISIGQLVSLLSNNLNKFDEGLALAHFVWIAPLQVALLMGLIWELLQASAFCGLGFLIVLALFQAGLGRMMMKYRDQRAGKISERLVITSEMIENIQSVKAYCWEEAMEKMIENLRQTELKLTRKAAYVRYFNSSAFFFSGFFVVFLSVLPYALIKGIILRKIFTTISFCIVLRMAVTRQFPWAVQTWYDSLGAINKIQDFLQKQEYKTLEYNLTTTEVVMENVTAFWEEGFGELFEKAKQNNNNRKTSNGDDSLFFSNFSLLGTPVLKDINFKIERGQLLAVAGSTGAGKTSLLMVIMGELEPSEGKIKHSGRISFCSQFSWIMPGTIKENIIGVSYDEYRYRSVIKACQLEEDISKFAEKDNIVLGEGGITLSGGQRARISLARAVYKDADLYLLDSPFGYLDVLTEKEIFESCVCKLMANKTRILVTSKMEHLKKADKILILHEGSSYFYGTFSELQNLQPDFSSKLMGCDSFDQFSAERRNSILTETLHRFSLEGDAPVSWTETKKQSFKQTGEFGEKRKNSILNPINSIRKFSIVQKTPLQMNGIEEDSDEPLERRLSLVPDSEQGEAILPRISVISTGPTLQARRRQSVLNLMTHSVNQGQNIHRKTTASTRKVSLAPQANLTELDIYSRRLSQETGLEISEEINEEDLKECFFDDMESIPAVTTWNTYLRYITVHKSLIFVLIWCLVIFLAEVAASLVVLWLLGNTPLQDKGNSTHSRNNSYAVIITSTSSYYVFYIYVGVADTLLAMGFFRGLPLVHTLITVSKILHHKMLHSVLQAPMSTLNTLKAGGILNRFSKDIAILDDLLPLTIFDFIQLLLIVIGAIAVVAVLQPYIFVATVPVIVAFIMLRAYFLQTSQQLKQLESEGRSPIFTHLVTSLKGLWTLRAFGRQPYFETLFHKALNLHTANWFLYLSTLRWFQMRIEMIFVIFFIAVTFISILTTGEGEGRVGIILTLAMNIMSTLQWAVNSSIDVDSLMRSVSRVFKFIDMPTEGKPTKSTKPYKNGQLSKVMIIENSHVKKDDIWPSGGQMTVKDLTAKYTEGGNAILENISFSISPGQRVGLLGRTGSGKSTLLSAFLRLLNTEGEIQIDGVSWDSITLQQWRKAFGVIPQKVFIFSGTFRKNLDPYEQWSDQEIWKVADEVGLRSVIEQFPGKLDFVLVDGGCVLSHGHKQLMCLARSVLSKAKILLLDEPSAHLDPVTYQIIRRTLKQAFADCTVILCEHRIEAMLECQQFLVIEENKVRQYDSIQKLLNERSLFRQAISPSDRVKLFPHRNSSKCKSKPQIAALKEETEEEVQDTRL
- Method description: Ussing chamber assay of CFTR-mediated short-circuit currents, Assay D (single concentration of 1 μM)
- Assay type: cell-based
- Experimental parameters: with 44 nM potentiator and 18 μM Tezacaftor, 20% human serum
- Experimental: Ussing chamber experiments were performed using human bronchial epithelial (HBE) cells derived from CF subjects heterozygous for F508del and a minimal function CFTR mutation (F508del/MF-HBE) and cultured as previously described (Neuberger T, Burton B, Clark H, Van Goor F Methods Mol Biol 2011:741:39-54). […] The activity of the CFTR corrector compounds on the CFTR-mediated ISC was determined in Ussing chamber studies as described above. […]
Metric name: D act. at 1 μM (%)

Cc1cccc(C)c1-c1cc2nc(n1)NS(=O)(=O)c1cccc(c1)C(=O)N(Cc1ncc3cc(C(C)(C)C)n(C)c3n1)[C@H](CC(C)(C)C)CO2 ... +++ (+++ is >60%)
Cc1cccc(C)c1-c1cc2nc(n1)NS(=O)(=O)c1cccc(c1)C(=O)N(Cc1cnc3oc(C#N)cc3n1)[C@H](CC1(C)CC1)CO2 ... +++ (+++ is >60%)
